assay.notes: supercomplex reporter luminescence per Hoechst cell count – Hoechst nuclei count (AID 1645838);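 further: control cybrid cells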
experimental.context: Cells, luminescence/Hoechst cell count ratio, measured here: cell number, Hoechst nuclei count, library stock concentration (final well concentration not given) 2 mM
About 100 (5%) of roughly 2,000 compounds were called active. The full list was thinned out, with actives kept by preference.
Each entry below carries its recorded cell count.
value.type: cell count

{"columns": ["compound", "measured.number"],
 "data": [
  ["CC(=O)c1c(C)c2cnc(Nc3ccc(N4CCNCC4)cn3)nc2n(C2CCCC2)c1=O", 4140],
  ["CCOc1ccc(S(=O)(=O)N(CC(=O)N=Nc2c(O)[nH]c3ccccc23)c2ccccc2)cc1", 4350],
  ["CCOc1ccc(-n2c(C(C)N(Cc3cccnc3)C(=O)Cc3ccc(OC(F)(F)F)cc3)nc3ncccc3c2=O)cc1 (stereo not drawn)", 4910]
]}

Reference source: PubChem BioAssay AID1645838
